# method summary: CCTE_Shafer_MEA_acute_burst_percentage_mean: CCTE's Neural Acute Assay for Percentage of Spikes in a Burst, Shafer Lab (AID 2284017)
The source made the active and inactive calls. How the source made its calls: active means hit-call score of the fitted dose curve at least 0.9, where 1 is the maximum; inactive means score below 0.9.
Entry note: the call must match one of active, inactive

Assay outcome for O=C(O)CCN(C1(C(=O)NO)CCCC1)S(=O)(=O)c1ccc(Oc2ccc(F)cc2)cc1 : what was it?
inactive

Assay outcome for CCCCCCCCCCCCc1ccccc1 : what was it?
inactive

Assay outcome for CCC(C)(C)C(=O)O[C@H]1C[C@@H](C)C=C2C=C[C@H](C)[C@H](CC[C@@H]3C[C@@H](O)CC(=O)O3)[C@H]21 : what was it?
inactive

Assay outcome for Cc1[nH]cnc1C[C@H]1CCc2c(C)c3ccccc3n2C1=O : what was it?
active

Assay outcome for CCCCC(CC)COC(=O)CCCCCCCCC(=O)OCC(CC)CCCC (centres undefined) : what was it?
inactive

---
Assay outcome for COc1ccc2sc(C(=O)Nc3nnn[nH]3)c(OC(C)C)c2c1 : what was it?
inactive

Assay outcome for On1ccccc1=S : what was it?
inactive

Assay outcome for CC[C@H]1OC(=O)[C@H](C)[C@@H](O[C@H]2C[C@@](C)(OC)[C@@H](O)[C@H](C)O2)[C@H](C)[C@@H](O[C@@H]2O[C@H](C)C[C@H](N(C)C)[C@H]2O)[C@](C)(O)C[C@@H](C)C(=O)[C@H](C)[C@@H](O)[C@]1(C)O : what was it?
inactive

Assay outcome for CCOC(=O)c1ccc(C2CCC(NC[C@H](O)COc3ccc(O)c(NS(C)(=O)=O)c3)CC2)cc1 (some centres undefined) : what was it?
active
